Data origin: PubChem BioAssay

# PROTOCOL: UWB1.289_BRCA1 ovarian cancer growth, cell-based, BGB or cisplatin combinations (AID 1671459)
# CONDITIONS USED: UWB1.289 BRCA1 ovarian carcinoma, drug combinations, BGB combination, concentration series, at 5 µM, stronger effect = higher value
The following compounds are shown together with reported inhibition values.

COMPOUND	inhibition (%)
CO[C@H]1/C=C/O[C@@]2(C)Oc3c(C)c(O)c4c(O)c(c5c(c4c3C2=O)=NC2(CCN(CC(C)C)CC2)N=5)NC(=O)/C(C)=C\C=C\[C@H](C)[C@H](O)[C@@H](C)[C@@H](O)[C@@H](C)[C@H](OC(C)=O)[C@@H]1C	-1.95
CC1OC(n2cc(F)c(=O)[nH]c2=O)C(O)C1O (configuration not stated)	-3.82
N#Cc1ccc(OC2CCC(NC(=O)CCSc3nc4ccccc4c(=O)[nH]3)CC2)cc1 (configuration not stated)	24.2
CC(C=CC(=O)NO)=CC(C)C(=O)c1ccc(N(C)C)cc1 (configuration not stated)	116
NC(=O)c1ncn(C2OC(CO)C(O)C2O)c1O (configuration not stated)	5.96
COc1nc(N)nc2c1ncn2[C@@H]1O[C@H](CO)[C@@H](O)[C@H]1O	-2.42
CCC1(O)C(=O)OCc2c1cc1n(c2=O)Cc2cc3cc(O)ccc3nc2-1 (configuration not stated)	95.1
CC(C)(O)[C@H]1CC[C@@](C)(C2[C@@H](O)C[C@@]3(C)[C@@H]4C[C@H](O)C5C(C)(C)[C@@H](O)CCC56CC46CC[C@]23C)O1 (some centres not stated)	9.93
CCC(Sc1nnc2c3ccccc3n(CC)c2n1)C(=O)Nc1ccccc1OC (configuration not stated)	-8.24
O=C1C(=Cc2cccnc2)C(=O)c2ccccc21	-3.65
CC(C)C(=O)SCCCCCCC(=O)Nc1nc(-c2ccccc2)cs1	37.8
C=C(C)C1CCC2(C(=O)O)CCC3(C)C(CCC4C5(C)CCC(O)C(C)(C)C5CCC43C)C12 (configuration not stated)	-4.55

====

# PROTOCOL: P. berghei load reduction in hepatocytes – cell-based, HepG2, luciferase luminescence, HepG2 viability, primary screen (AID 624349);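 note: 100% = mean of DMSO negative control wells on the same plate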
# CONDITIONS USED: P. berghei liver stage in HepG2, luciferase luminescence, concentration not given here; measured here: HepG2 viability without parasites
The following compounds are shown together with reported viability values.
PARAMETER MEASURED: viability (%)

COMPOUND	PARAMETER MEASURED	READING UNIT	RECORDED NUMBER
O=C(c1cc2cc(O)ccc2[nH]1)c1cc2cc(O)ccc2[nH]1	viability	%	97.4
O=C1NC(=O)C(c2cn(CCCO)c3ncccc23)=C1c1cnccn1	viability	%	97.4
COc1c2c(nc3ccccc13)OC(C(C)(O)CO)C2 (stereo unspecified)	viability	%	73.1
CC(=O)OC1C=C2C(Cl)=C[C@@H]3[C@H](CC[C@@]4(C)[C@H]3CC[C@]4(OC(C)=O)C(C)=O)[C@@]2(C)CC1 (stereo partly specified)	viability	%	64
O[C@H]1[C@H](O)[C@@H](O)[C@@H]2O[C@@H]2[C@@H]1O	viability	%	72
CCCC(=O)Nc1ncnc2c1ncn2[C@@H]1O[C@@H]2OP(=O)(O)OC[C@H]2[C@H]1OC(=O)CCC	viability	%	101
CC[C@@H](C(=O)C(C)[C@@H](O)[C@H](C)CCc1ccc(C)c(O)c1C(=O)O)C1OC(CC)(C2CC[C@](O)(CC)[C@H](C)O2)C[C@@H]1C (stereo partly specified)	viability	%	84.4
Nc1nc2ncc(CNc3ccc(C(=O)N[C@H](CCC(=O)O)C(=O)O)cc3)nc2c(=O)[nH]1	viability	%	76.8
O=C(c1ccccc1)c1ccc(N2CCOCC2)cc1O	viability	%	74.9
N#Cc1c(-c2ccccc2)cc(-c2cc(Br)ccc2O)[nH]c1=O	viability	%	75.4
CNc1cc2c(Nc3cccc(Br)c3)ncnc2cn1	viability	%	157
OCC(O)CCO/N=C1/C(c2c(O)[nH]c3ccccc23)=Nc2ccccc21 (stereo unspecified)	viability	%	80.9
C=C1c2c(Cl)ccc(O)c2C(O)=C2C(=O)[C@]3(O)C(O)=C(C(N)=O)C(=O)[C@@H](N(C)C)[C@@H]3[C@@H](O)C12 (stereo partly specified)	viability	%	104
CC[C@@H](CO)Nc1nc(NCc2ccc(-c3ccccn3)cc2)c2ncn(C(C)C)c2n1	viability	%	75.3
COc1cc2ncnc(Nc3ccc(NC(=O)c4ccccc4)cc3)c2cc1OC	viability	%	100
CC[C@H]1OC(=O)[C@H](C)C(=O)[C@H](C)[C@@H](O[C@@H]2O[C@H](C)C[C@H](N(C)C)[C@H]2O)[C@](C)(OC)C[C@@H](C)C(=O)[C@H](C)[C@@H]2N(CCCCn3cnc(-c4cccnc4)c3)C(=O)O[C@@]21C	viability	%	63.9
C[N+]1(C)C[C@@H](O)C[C@H]1C(=O)[O-]	viability	%	106
CC(C)=CCC/C(C)=C/CC1=C(C)C(=O)c2ccccc2C1=O	viability	%	75.8
COC1CC(O[C@H]2[C@H](C)[C@@H](OC3OC(C)CC(N(C)C)C3O)[C@@H](C)C[C@]3(CO3)C(=O)[C@H](C)[C@@H](O)[C@@H](C)[C@@H](C)OC(=O)[C@@H]2C)OC(C)C1O (stereo partly specified)	viability	%	90.7
CC(C)(C)CC(C)(C)c1ccc(OCOCCOCCO)c(Cc2cc(C(C)(C)CC(C)(C)C)cc(Cc3cc(C(C)(C)CC(C)(C)C)ccc3OCOCCOCCO)c2OCOCCOCCO)c1	viability	%	98.8
CCOC(=O)Oc1c(OC)cc(C(=O)OC2CC3CN4CCc5c([nH]c6cc(OC)ccc56)C4CC3C(C(=O)OC)C2OC)cc1OC (stereo unspecified)	viability	%	77.6

====

# PROTOCOL: viability loss with induced miR-34 in A549 – imaging, A549 dox-inducible miR-34, nuclei and caspase counts, primary screen (AID 1347080)
# CONDITIONS USED: A549 miR-34 inducible, Hoechst nuclei count, 48 h; measured here: total cells with miR-34 induction; stronger effect = lower value

MOLECULE	cell count
Cc1[nH]c2ccccc2c1C1=C(NCCc2ccc(F)cc2)C(=O)N(C)C1=O	2210
CC(C)n1cc(-c2cc(C(=O)N(C)Cc3ccncc3)c3ccc(F)cc3n2)cn1	8810
CCCCC/C=C\C/C=C\C/C=C\C=C\C(=O)CCCC(=O)O	5820
Cc1cccc(C)c1OCC(=O)NC(Cc1ccccc1)C(O)CC(Cc1ccccc1)NC(=O)C(C(C)C)N1CCCNC1=O (configuration not stated)	6290
c1ccc(CN(CCN(Cc2ccccn2)Cc2ccccn2)Cc2ccccn2)nc1	418
CC(=O)c1cc([N+](=O)[O-])c(Sc2ccc(F)cc2F)s1	8140
CCN1CCN(C(=O)NC(C(=O)NC2C(=O)N3C(C(=O)O)=C(CSc4nnnn4C)CS[C@H]23)c2ccc(O)cc2)C(=O)C1=O (some centres not stated)	7730
COc1cc(C=CC(=O)O)ccc1O	7790
CCc1ccc(CNC(=O)Nc2nc(C)n(C(C)C)n2)nc1	7770
O=C1CCC(c2ccc(-n3ccnc3)cc2)=NN1	10200
CCC(=O)OC1(C(=O)CCl)[C@@H](C)C[C@H]2[C@@H]3CCC4=CC(=O)C=C[C@]4(C)[C@@]3(F)[C@@H](O)C[C@@]21C (some centres not stated)	5850
C#C[C@]1(O)CCC2C3CCC4=CC(=O)CCC4C3CC[C@@]21CC (some centres not stated)	8490
CC1CNc2c(cccc2S(=O)(=O)N[C@@H](CCCN=C(N)N)C(=O)N2CCC(C)CC2C(=O)O)C1 (some centres not stated)	7750
CCC(=O)NCCC1CCc2ccc3c(c21)CCO3 (configuration not stated)	8720
CN1C2CC(OC(=O)C(CO)c3ccccc3)CC1C1OC12 (configuration not stated)	9400
CCCCCCCC/C=C\CCCCCCCC(=O)OC[C@H](CO)OC(=O)CCCCCCC/C=C\CCCCCCCC	5310
N[C@@H](CCCC(=O)O)C(=O)O	10400
N#Cc1cc([N+](=O)[O-])c2sc(C(N)=O)[n+]([O-])c2c1	7220
CN1CCc2cc(NC(=O)Nc3cccnc3)ccc21	10800
CC1C(=O)O[C@H]2C(O)C34C5CC(C(C)(C)C)C36C(O)C(=O)O[C@H]6O[C@]4(C(=O)O5)[C@@]12O (some centres not stated)	7630
NC(=NCc1ccc(Cl)cc1Cl)NC(=O)c1nc(Cl)c(N)nc1N	1450
COc1nc2ccccc2cc1-c1nnc2ccccn12	7160
COc1c(C)c2c(c(O)c1CC=C(C)CCC(=O)O)C(=O)OC2	3150
N.N.O=C(O)C1(C(=O)O)CCC1.[Pt+2]	6330
NCCCCCNCC12CC3CC(CC(C3)C1)C2	8590
COc1ccc2cc([C@@H](C)C(=O)O)ccc2c1	6320
FC(F)Oc1ccc(-c2nc3c(cnn3Cc3cccs3)[nH]2)cc1	6520
O=C(NCC(c1ccccc1)c1ccccc1)Nc1nncs1	7570
CCCCC/C=C\C[C@@H](O)/C=C/C=C\C/C=C\CCCC(=O)O	4740
COc1ccc(C(=O)c2ccc(C)cc2)c(O)c1	4460
C=CCn1c(=O)c2c(nc(-c3ccc(S(=O)(=O)O)cc3)n2C)n(C)c1=O	10300
COC(=O)C1=COC(OC2OC(CO)C(O)C(O)C2O)[C@H]2C(CO)=CC[C@H]12 (some centres not stated)	7570
